I'd appreciate it if you could supply growth inhibition values for the items below.
# Assay Text: NCI Yeast Anticancer Drug Screen. Data for the bub3 strain (AID 167)
# Test Settings: S. cerevisiae bub3 mutant strain, at 50.0 µM (retest, dose inferred, filed as 5.0), hits give high values
About 79,000 compounds went through this panel and 15% of them were active in at least one assay; those are over-represented in the sample as a whole.
Numbers only, in %.

For every listed record, write down its growth inhibition.
1. CCOC(=O)/C(=C\c1cccc(C)c1)C(C)=O
2. CCCCCc1c(CCCC)c(=O)[nH]c2cc(CNCC(OC)OC)ccc12
3. CCN(CC)CC(=O)c1ccc2cc(Cl)c3ccccc3c2c1
4. CCOC(=O)CC1(C)/C(=N\Nc2ccc([N+](=O)[O-])cc2[N+](=O)[O-])CCC2C1CCC1(C)C(C(C)CCCC(C)C)CCC21 (stereo unspecified)
5. COc1cc([N+](=O)[O-])c2ncccc2c1Br
6. N#CC1OB(O)c2ccccc21 (stereo unspecified)

Result:
1. 96
2. 97
3. 98
4. -11
5. -3
6. -36
